Data provenance is ChEMBL document CHEMBL1136897.

# system: Cannabinoid receptor 1 (Homo sapiens, UniProt P21554)
# Sequence (P21554 whole entry): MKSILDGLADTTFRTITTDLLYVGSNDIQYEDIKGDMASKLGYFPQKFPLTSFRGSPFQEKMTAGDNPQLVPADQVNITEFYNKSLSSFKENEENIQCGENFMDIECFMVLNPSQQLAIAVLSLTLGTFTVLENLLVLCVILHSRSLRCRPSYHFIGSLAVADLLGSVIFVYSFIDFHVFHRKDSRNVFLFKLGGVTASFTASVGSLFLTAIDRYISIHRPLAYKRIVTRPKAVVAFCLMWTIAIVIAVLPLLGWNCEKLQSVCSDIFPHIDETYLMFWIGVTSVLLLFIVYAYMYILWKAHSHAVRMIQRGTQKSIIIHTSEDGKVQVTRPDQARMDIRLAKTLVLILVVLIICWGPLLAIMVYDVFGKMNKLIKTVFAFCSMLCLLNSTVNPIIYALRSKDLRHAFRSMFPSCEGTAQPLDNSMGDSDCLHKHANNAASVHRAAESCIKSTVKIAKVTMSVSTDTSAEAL
measured-quantity: pIC50
The read-out pIC50 is expressed as -log10 of concentration in moles per litre.

Request: // pIC50 lookup, key: CC(NS(=O)(=O)C(C)(C)C)C(Cc1ccc(Cl)cc1)c1cccc(C#N)c1 (stereo not drawn)
Response: 5.77

Request: // pIC50 lookup, key: CC(C)NC(=O)N1CCN(C(c2ccc(Cl)cc2)c2ccccc2C(F)(F)F)CC1 (stereo not drawn)
Response: 5.18

Request: // pIC50 lookup, key: CC(NS(=O)(=O)Cc1ccccc1)C(Cc1ccc(Cl)cc1)c1cccc(C#N)c1 (stereo not drawn)
Response: 7.68

* * *

# system: Cannabinoid receptor 1 (Homo sapiens, UniProt P21554)
# Type: functional
pIC50: −log10 of the molar value.
Could you label it rule met if measured pIC50 is 7 or higher, and rule not met otherwise?

Request: Say whether Cc1ccccc1C(c1ccc(Cl)cc1)N1CCN(C(=O)NC(C)C)CC1 (stereo not given) shows pIC50 of 7 or more.
Response: rule not met

Request: Say whether CC(=O)Nc1c(C#N)c(=O)n(C)c2nc(-c3ccc(Cl)cc3Cl)c(-c3ccc(Cl)cc3)cc12 shows pIC50 of 7 or more.
Response: rule met

Request: Say whether CC(NC(=O)C(C)(C)Oc1cc(F)cc(F)c1)C(Cc1ccc(Cl)cc1)c1ccccc1 (stereo not given) shows pIC50 of 7 or more.
Response: rule met

Request: Say whether CC(C)NC(=O)N1CCN(C(c2ccc(Br)cc2)c2ccccc2Cl)CC1 (stereo not given) shows pIC50 of 7 or more.
Response: rule not met

Request: Say whether CC(NS(C)(=O)=O)C(Cc1ccc(Cl)cc1)c1cccc(C#N)c1 (stereo not given) shows pIC50 of 7 or more.
Response: rule not met

Request: Say whether CC(NC(=O)C(C)(C)Oc1cccc(Cl)c1)C(Cc1ccc(Cl)cc1)c1ccccc1 (stereo not given) shows pIC50 of 7 or more.
Response: rule met

Request: Say whether CC(NC(=O)C(C)(C)Oc1ccc(Cl)cn1)C(Cc1ccc(Cl)cc1)c1ccccc1 (stereo not given) shows pIC50 of 7 or more.
Response: rule met

Request: Say whether CC(C)NC(=O)N1CCN(C(c2ccc(Cl)cc2)c2ccccc2Cl)CC1 (stereo not given) shows pIC50 of 7 or more.
Response: rule not met

Request: Say whether O=C(NCC1CCC1)N1CCN(C(c2ccc(Cl)cc2)c2ccc(Cl)cc2)CC1 shows pIC50 of 7 or more.
Response: rule not met
